Consider the following molecules; for each one, report its pKi.
- EXPERIMENTAL_TARGET: alpha-L-fucosidase (Bos taurus)
- EXPERIMENT: Compound was tested for inhibitory activity (competitive) against alpha-L-fucosidase from bovine kidney
# log scale: pKi equals minus log10 of the concentration in mol/L

-- ask Read the entry NCC(O)C(=O)C(=O)C(N)CO (configuration not stated) [2,6-Diimino-hexane-1,3,4,5-tetraol] and write its reported pKi.
-- reply 5.15

-- ask Read the entry C[C@@H]1O[C@@H](O)[C@@H](O)[C@H](O)[C@@H]1S and write its reported pKi.
-- reply 4.38

----------
- EXPERIMENTAL_TARGET: alpha-L-fucosidase (Bos taurus)
- EXPERIMENT: Compound was tested for inhibitory activity against alpha-L-fucosidase from bovine epididymis
REPORTED_METRIC: Ki (µM)
The answer is to be given in µM; state only the numeric part.

-- ask Read the entry C[C@@H]1O[C@@H](O)[C@@H](O)[C@H](O)[C@@H]1S and write its reported Ki.
-- reply 84

-- ask Read the entry NCC(O)C(=O)C(=O)C(N)CO (configuration not stated) and write its reported Ki.
-- reply 11

----------
Consider the following compounds; for each one, report its pKi.
- EXPERIMENTAL_TARGET: alpha-L-fucosidase (Bos taurus)
- EXPERIMENT: Compound was tested for inhibitory activity (mixed) against alpha-L-fucosidase from bovine kidney
# log scale: pKi equals minus log10 of the concentration in mol/L

-- ask Read the entry CC1OC(SC2CC(O)C(O)OC2CO)C(O)C(O)C1O (configuration not stated) and write its reported pKi.
-- reply 2.40

-- ask Read the entry CC(=O)NC1CC(SC2OC(C)C(O)C(O)C2O)C(CO)OC1O (configuration not stated) and write its reported pKi.
-- reply 2.62
